TARGET DESC: human F508del CFTR (Homo sapiens, UniProt P13569, DEL508-508)
Construct: expressed in transfected cells; host or cells: Fisher Rat Thyroid (FRT) cells
Sequence (P13569 with tags, fused parts or gaps DEL508-508): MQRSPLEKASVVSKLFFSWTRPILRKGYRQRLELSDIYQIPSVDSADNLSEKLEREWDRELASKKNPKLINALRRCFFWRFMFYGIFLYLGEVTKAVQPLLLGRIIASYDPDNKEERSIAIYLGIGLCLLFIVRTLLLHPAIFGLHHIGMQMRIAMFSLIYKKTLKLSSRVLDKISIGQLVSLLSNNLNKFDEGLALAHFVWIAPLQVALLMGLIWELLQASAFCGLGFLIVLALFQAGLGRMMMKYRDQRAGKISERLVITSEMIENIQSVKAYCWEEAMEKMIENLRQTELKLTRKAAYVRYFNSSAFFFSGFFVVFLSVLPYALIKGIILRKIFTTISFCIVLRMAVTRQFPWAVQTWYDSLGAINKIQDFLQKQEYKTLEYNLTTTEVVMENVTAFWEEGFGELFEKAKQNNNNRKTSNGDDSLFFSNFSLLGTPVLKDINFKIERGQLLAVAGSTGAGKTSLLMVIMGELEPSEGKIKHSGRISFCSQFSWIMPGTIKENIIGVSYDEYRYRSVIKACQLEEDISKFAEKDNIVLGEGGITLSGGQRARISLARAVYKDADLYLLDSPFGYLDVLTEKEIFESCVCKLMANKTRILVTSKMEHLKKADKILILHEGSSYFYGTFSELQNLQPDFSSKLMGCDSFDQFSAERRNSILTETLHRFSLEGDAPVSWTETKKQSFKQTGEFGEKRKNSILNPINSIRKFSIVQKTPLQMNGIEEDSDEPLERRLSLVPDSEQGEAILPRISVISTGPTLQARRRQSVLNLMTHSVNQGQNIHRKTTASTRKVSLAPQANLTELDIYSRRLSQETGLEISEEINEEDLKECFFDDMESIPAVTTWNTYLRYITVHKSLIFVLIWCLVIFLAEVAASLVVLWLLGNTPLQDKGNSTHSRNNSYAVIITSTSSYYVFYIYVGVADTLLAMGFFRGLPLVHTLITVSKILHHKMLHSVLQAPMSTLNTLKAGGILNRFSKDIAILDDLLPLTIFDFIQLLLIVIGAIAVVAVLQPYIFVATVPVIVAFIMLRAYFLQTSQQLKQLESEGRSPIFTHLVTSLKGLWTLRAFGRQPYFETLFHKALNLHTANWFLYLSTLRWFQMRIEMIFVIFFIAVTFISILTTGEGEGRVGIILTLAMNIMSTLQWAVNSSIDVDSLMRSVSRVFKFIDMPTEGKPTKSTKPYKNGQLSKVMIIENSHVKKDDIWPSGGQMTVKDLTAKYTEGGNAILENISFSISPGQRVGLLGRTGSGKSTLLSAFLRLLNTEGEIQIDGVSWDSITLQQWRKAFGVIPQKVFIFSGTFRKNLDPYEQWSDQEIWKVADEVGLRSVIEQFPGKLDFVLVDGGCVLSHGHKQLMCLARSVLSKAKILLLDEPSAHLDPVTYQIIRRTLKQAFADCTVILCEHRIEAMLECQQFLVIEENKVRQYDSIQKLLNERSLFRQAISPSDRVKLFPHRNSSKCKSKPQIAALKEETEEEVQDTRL
PROTOCOL NOTES: CFTR-YFP High Throughput Assay
Assay type: cell-based
CONDITION INFO: EMax normalized to the positive control; FRT cells expressing human F508del CFTR and YFP; read-out: % Efficacy
PROPERTY LABEL: Emax

[[record]]
test_smiles = "CCN(C(=O)c1nn(-c2ccccc2)c(=O)c2c1c1ccccc1n2C)c1ncnc2c1cnn2C"
test_result = "30 to 80%"


Return the recorded Emax value; entry: CCN(C(=O)c1nn(-c2ccccc2F)c(=O)c2c1c1ccccc1n2C)c1ccccc1
30 to 80%

Return the recorded Emax value; entry: CCN(C(=O)Cn1nc(Cc2cccnc2)c2ccc(OC)cc2c1=O)c1ccc2c(c1)OC(F)(F)O2
30 to 80%

Return the recorded Emax value; entry: CCN(C(=O)Cn1nc(C(=O)Nc2ccccc2C#N)c2ccccc2c1=O)c1ccc2c(c1)OC(F)(F)O2
30 to 80%

---

TARGET DESC: human F508del CFTR (Homo sapiens, UniProt P13569, DEL508-508)
Construct: expressed in transfected cells; host or cells: Fisher Rat Thyroid (FRT) cells
PROTOCOL NOTES: CFTR-YFP High Throughput Assay
Assay type: cell-based
CONDITION INFO: EMax normalized to the positive control; FRT cells expressing human F508del CFTR and YFP; read-out: % Efficacy
PROPERTY LABEL: Emax

Past entries and their recorded results:
[[record]]
compound = "CCN(C(=O)Cn1ncc2c([nH]c3ccccc32)c1=O)c1ccc2c(c1)OC(F)(F)O2 [Example 222]"
property_label = "Emax"
test_result = "30 to 80%"

[[record]]
compound = "CCN(CC)C(=O)c1nn(CC(=O)N(CC)c2cccc(Cl)c2)c(=O)c2c1c1ccccc1n2C [Example 213]"
property_label = "Emax"
test_result = "30 to 80%"

[[record]]
compound = "Cc1ccc(-n2nc(C(=O)N(c3ccccc3)C(C)C)c3c(-c4ccccc4)onc3c2=O)cc1 [Example 248]"
property_label = "Emax"
test_result = "10 to 30%"

[[record]]
compound = "CCc1ccc(N(CC)C(=O)Cn2nc(-c3ccc(S(N)(=O)=O)cc3)c3ccccc3c2=O)cc1 [Example 13]"
property_label = "Emax"
test_result = "30 to 80%"

[[record]]
compound = "CCc1ccc(N(CC)C(=O)Cn2nc(Cc3cccnc3)c3ccccc3c2=O)cc1 [Example 25]"
property_label = "Emax"
test_result = "30 to 80%"


Now look at this one.
State measured Emax of the compound CCN(C(=O)c1nn(-c2nc3ccccc3n2C)c(=O)c2c1c1ccccc1n2C)c1ccccc1 [Example 173] with human F508del CFTR (Homo sapiens, UniProt P13569, DEL508-508).
10 to 30%

---

TARGET DESC: human F508del CFTR (Homo sapiens, UniProt P13569, DEL508-508)
PROTOCOL NOTES: CFTR-YFP High Throughput Assay
CONDITION INFO: FRT cells expressing human F508del CFTR and YFP
PROPERTY LABEL: EC50

[[record]]
compound = "CCN(C(=O)Cn1nc(Cc2cccnc2)c2c3ccccc3n(C)c2c1=O)c1ccc2c(c1)OC(F)(F)O2 [Example 238]"
test_result = "< 10 µM"

[[record]]
compound = "CCN(C(=O)c1nn(-c2ccc(C)cc2)c(=O)c2c1c1cccc(OC)c1n2C)c1ccccc1 [Example 189]"
test_result = "> 20 µM"

[[record]]
compound = "CCN(C(=O)c1nn(C(C)c2ccccc2)c(=O)c2c1c1c(C)cccc1n2C)c1ccccc1 (stereo not shown) [Example 218]"
test_result = "< 10 µM"


Now look at this one.
Return the recorded EC50 value; entry: CCN(C(=O)c1nn(C2CCN(C)CC2)c(=O)c2c1c1ccccc1n2C)c1ccccc1 [Example 199]
> 20 µM

---

TARGET DESC: human F508del CFTR (Homo sapiens, UniProt P13569, DEL508-508)
PROTOCOL NOTES: CFTR-YFP High Throughput Assay
CONDITION INFO: FRT cells expressing human F508del CFTR and YFP
Method: Assays for Detecting and Measuring the Effect of Compounds on F508del-CFTR Channels CFTR-YFP High Throughput Assay-CFTR Corrector Protocol: […] YFP fluorescence intensity values are acquired at high speed before and after iodide buffer is injected to the assay cells. Iodide enters the cells via active CFTR channels in the plasma membrane, and quenches the YFP fluorescence. The rate of fluorescence quenching is proportionate to the total CFTR activity in the cell membrane. […]
pEC50: −log10 of the molar value.
PROPERTY LABEL: pEC50

[[record]]
compound = "CCN(CC)C(=O)c1nn(CC(=O)N(CC)c2cccc(Cl)c2)c(=O)c2c1c1ccccc1n2C"
target_desc = "human F508del CFTR (Homo sapiens, UniProt P13569, DEL508-508)"
test_result = "> 5.00"

[[record]]
compound = "CCOc1ccc(N(CC)C(=O)c2nn(C(C)C)c(=O)c3c2c2ccccc2n3C)cc1"
target_desc = "human F508del CFTR (Homo sapiens, UniProt P13569, DEL508-508)"
test_result = "> 5.00"

[[record]]
compound = "CCN(C(=O)Cn1nc(C(=O)Nc2ccccn2)c2ccccc2c1=O)c1ccc2c(c1)OC(F)(F)O2"
target_desc = "human F508del CFTR (Homo sapiens, UniProt P13569, DEL508-508)"
test_result = "> 5.00"

[[record]]
compound = "Cn1c2ccccc2c2c(-c3ccccc3)nn(-c3ccccc3)c(=O)c21"
target_desc = "human F508del CFTR (Homo sapiens, UniProt P13569, DEL508-508)"
test_result = "< 4.70"

[[record]]
compound = "CCN(C(=O)Cn1ncc2c([nH]c3ccccc32)c1=O)c1ccc2c(c1)OC(F)(F)O2"
target_desc = "human F508del CFTR (Homo sapiens, UniProt P13569, DEL508-508)"
test_result = "< 4.70"


Return the recorded pEC50 value; entry: CCN(CC)C(=O)c1nn(CC(O)COCc2ccccc2)c(=O)c2c1c1c(OC)cccc1n2C (stereo not shown)
> 5.00

---

TARGET DESC: human F508del CFTR (Homo sapiens, UniProt P13569, DEL508-508)
PROTOCOL NOTES: CFTR-YFP High Throughput Assay
CONDITION INFO: FRT cells expressing human F508del CFTR and YFP
PROPERTY LABEL: EC50

Past entries and their recorded results:
[[record]]
molecule = "CCN(C(=O)c1nn(-c2ccc(C)cc2)c(=O)c2c1c1c(OC)cccc1n2C)c1ccccc1 [Example 195]"
target_desc = "human F508del CFTR (Homo sapiens, UniProt P13569, DEL508-508)"
test_result = "< 10 µM"

[[record]]
molecule = "CCN(C(=O)Cn1ncc2c(c1=O)c1ccccc1n2Cc1ccc(OC)cc1)c1ccc2c(c1)OC(F)(F)O2 [Example 136]"
target_desc = "human F508del CFTR (Homo sapiens, UniProt P13569, DEL508-508)"
test_result = "< 10 µM"

[[record]]
molecule = "CCN(C(=O)Cn1nc(Cc2cccnc2)c2cc(OC)c(OC)cc2c1=O)c1ccc2c(c1)OC(F)(F)O2 [Example 44]"
target_desc = "human F508del CFTR (Homo sapiens, UniProt P13569, DEL508-508)"
test_result = "10 to 20 µM"

[[record]]
molecule = "CCN(C(=O)Cn1nc(Cc2cccnc2)c2cccc(OC3CCCCC3)c2c1=O)c1ccc2c(c1)OC(F)(F)O2 [Example 59]"
target_desc = "human F508del CFTR (Homo sapiens, UniProt P13569, DEL508-508)"
test_result = "10 to 20 µM"

[[record]]
molecule = "CCc1ccc(N(CC)C(=O)Cn2nc(Cc3cccnc3)c3ccc(Cl)cc3c2=O)cc1 [Example 39]"
target_desc = "human F508del CFTR (Homo sapiens, UniProt P13569, DEL508-508)"
test_result = "> 20 µM"

[[record]]
molecule = "Cc1nc2ccc(N(C)C(=O)Cn3nc(-c4cccc(C#N)c4)c4ccc(OC5CCOCC5)cc4c3=O)cc2o1 [Example 120]"
target_desc = "human F508del CFTR (Homo sapiens, UniProt P13569, DEL508-508)"
test_result = "< 10 µM"

[[record]]
molecule = "CCN(C(=O)c1nn(C)c(=O)c2c1c1ccccc1n2C)c1cccc(Cl)c1 [Example 209]"
target_desc = "human F508del CFTR (Homo sapiens, UniProt P13569, DEL508-508)"
test_result = "< 10 µM"


Now look at this one.
Return the recorded EC50 value; entry: CC(C)N(C(=O)c1nn(-c2ccccn2)c(=O)c2c1c1ccccc1n2C)c1ccccc1 [Example 186]
< 10 µM

---

TARGET DESC: human F508del CFTR (Homo sapiens, UniProt P13569, DEL508-508)
PROTOCOL NOTES: CFTR-YFP High Throughput Assay
CONDITION INFO: FRT cells expressing human F508del CFTR and YFP
pEC50: −log10 of the molar value.
Recorded pEC50 for the following compounds

Past entries and their recorded results:
[[record]]
compound = "COc1ccc2c(-c3cccc(C#N)c3)nn(CC(=O)C3(c4ccc5c(c4)OC(F)(F)O5)CC3)c(=O)c2c1"
test_result = "> 5.00"

[[record]]
compound = "CCOc1ccc2c(-c3cccc(C#N)c3)nn(CC(=O)N(C)c3ccc4nc(C)oc4c3)c(=O)c2c1"
test_result = "> 5.00"

[[record]]
compound = "CCN(C(=O)c1nn(-c2ccc(C(F)(F)F)cc2)c(=O)c2c1c1ccccc1n2C)c1ccccc1"
test_result = "< 4.70"

[[record]]
compound = "Cc1nc2ccc(N(C)C(=O)Cn3ncc4c(c3=O)c3ccccc3n4Cc3ccc(F)cc3)cc2o1"
test_result = "> 5.00"

[[record]]
compound = "CCN(C(=O)Cn1nc(-c2cccc(F)c2)c2ccccc2c1=O)c1ccc2c(c1)OC(F)(F)O2"
test_result = "> 5.00"

[[record]]
compound = "CCOC(=O)c1ccc2c(-c3cccc(Cl)c3)nn(CC(=O)N(C)c3ccc4nc(C)oc4c3)c(=O)c2c1"
test_result = "> 5.00"

[[record]]
compound = "CCc1ccc(N(CC)C(=O)Cn2nc(-c3ccc(S(N)(=O)=O)cc3)c3ccccc3c2=O)cc1"
test_result = "4.70 to 5.00"

[[record]]
compound = "CCN(C(=O)c1nn(C[C@@H](O)COCc2ccccc2)c(=O)c2c1c1ccccc1n2C)c1ccccc1"
test_result = "> 5.00"


Return the recorded pEC50 value; entry: CCN(C(=O)Cn1nc(-c2cccc(C#N)c2)c2ccc(O)cc2c1=O)c1ccc2c(c1)OC(F)(F)O2
> 5.00

Return the recorded pEC50 value; entry: Cc1nc2ccc(N(C)C(=O)Cn3ncc4c(c3=O)c3ccccc3n4Cc3ccc(C#N)cc3)cc2o1
> 5.00

Return the recorded pEC50 value; entry: CCN(C(=O)c1nn(C)c(=O)c2c1c1ccccc1n2C)c1ccc2c(c1)OC(F)(F)O2
> 5.00

Return the recorded pEC50 value; entry: CCc1ccc(N(CC)C(=O)Cn2nc(Cc3cccnc3)c3ccncc3c2=O)cc1
> 5.00

Return the recorded pEC50 value; entry: Cc1nc2ccc(N(C)C(=O)Cn3nc(-c4cccc(Cl)c4)c4ccc(O)cc4c3=O)cc2o1
> 5.00

Return the recorded pEC50 value; entry: CN(C(=O)Cn1nc(-c2cccc(C#N)c2)c2ccc(O)cc2c1=O)c1ccc2c(c1)OC(F)(F)O2
> 5.00

Return the recorded pEC50 value; entry: CCN(C(=O)Cn1ncc2c(c1=O)c1ccccc1n2CCC#N)c1ccc2c(c1)OC(F)(F)O2
< 4.70
